B1: HDV Ribozyme (parent)
chain: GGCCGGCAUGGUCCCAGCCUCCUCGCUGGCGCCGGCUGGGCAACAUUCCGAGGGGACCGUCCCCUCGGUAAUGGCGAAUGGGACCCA

# Variants of: B1
# protocol-text: self-cleavage, relative activity (ratio to wild type); higher = more cleavage; co-transcriptional
Lab note: anything with self-cleavage at or over 0.2 counts as satisfied; the rest go in not satisfied.

# bool: self-cleavage of C13U G31U >= 0.2
not satisfied

Given the entry G52A C64A , answer whether its self-cleavage meets or surpasses 0.2.
satisfied

Answer whether self-cleavage of A77C A87U is greater than or equal to 0.2.
satisfied

self-cleavage >= 0.2 for C14U C64G ?
satisfied

For this variant, is measured self-cleavage 0.2 or higher? C15U C44U
satisfied

Say whether C75A C86U shows self-cleavage of 0.2 or more.
not satisfied

Kindly determine if self-cleavage recorded for G28U A83C is above or exactly 0.2.
not satisfied

Exam item: decide whether the reported self-cleavage for C21A G38A is at least 0.2.
not satisfied

hey, is self-cleavage for this one >= 0.2? C22U G67A
satisfied

Check if self-cleavage >= 0.2 (inclusive). Item: U60C G73A
satisfied

Identify whether the reported self-cleavage of the following variant is 0.2 or greater: G1U A77U
not satisfied

Check if self-cleavage >= 0.2 (inclusive). Item: C3U U37C
satisfied

# bool: self-cleavage of U47A U65A >= 0.2
satisfied

Is reported self-cleavage greater than or equal to 0.2 here: G5A C22A
not satisfied

Textbook exercise: given the entry C13G A56C , state whether its self-cleavage is greater than or equal to 0.2.
not satisfied

Could you tell me if the measured self-cleavage of C19G C48U reaches 0.2 or more?
not satisfied

Determine whether measured self-cleavage meets or exceeds 0.2 for G6C A16G
not satisfied

Reported self-cleavage at or above 0.2? C3G C41U
satisfied

Does the reported self-cleavage for C26G A51C fall at or above the 0.2 mark?
satisfied

Confirm if self-cleavage reported for the variant G38C U65C is 0.2 or above.
satisfied

Assess whether reported self-cleavage for A45C U65G sits at 0.2 or higher.
satisfied

Check if self-cleavage >= 0.2 (inclusive). Item: G29C G38C
not satisfied

In plain terms: is recorded self-cleavage at least 0.2 for G29C G40C ?
not satisfied

Determine whether this variant has self-cleavage no lower than 0.2: C26A U65C
satisfied

Threshold query (self-cleavage >= 0.2) on A78C G80U
not satisfied

// inclusive: self-cleavage at least 0.2? input: C26A G67U
satisfied

Hi team, for C15G C63G , is the recorded self-cleavage at or above 0.2?
satisfied
